# System Under Test: Neutrophil elastase (Homo sapiens) (UniProt P08246)
# Sequence (P08246 whole entry): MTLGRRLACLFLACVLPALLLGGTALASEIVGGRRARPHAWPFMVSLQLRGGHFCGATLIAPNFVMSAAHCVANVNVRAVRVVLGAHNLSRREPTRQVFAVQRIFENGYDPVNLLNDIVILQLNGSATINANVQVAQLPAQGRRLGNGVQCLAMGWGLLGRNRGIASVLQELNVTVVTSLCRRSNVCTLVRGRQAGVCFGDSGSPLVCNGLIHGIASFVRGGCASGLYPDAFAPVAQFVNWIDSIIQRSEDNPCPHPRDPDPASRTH
# Assay Summary: Inhibitory activity against Human leukocyte elastase was determined in vitro and expressed as kinetic constant for inhibition (reactivity)
Recorded measurements of Kreact, one per entry
Express it in s⁻¹; write the number only.

Worked examples, 2 compounds total:
Compound | Endpoint Unit | Kreact
CCOP(=O)(OCC)OCN1C(=O)c2c(C(C)C)cc(OC)cc2S1(=O)=O | s⁻¹ | 1.2e-05
CCOP(=O)(OCC)OCN1C(=O)c2c(C(C)C)cccc2S1(=O)=O | s⁻¹ | 5.3e-05

So, CCOP(=O)(OCC)OCN1C(=O)c2ccccc2S1(=O)=O ? Its Kreact was 6.6e-05

So, CCOP(=O)(OCC)OCN1C(=O)c2c(C(C)C)cc(O)cc2S1(=O)=O ? Its Kreact was 1.4e-05

So, CCOP(=O)(OCC)OCN1C(=O)c2c(C(C)CC)cccc2S1(=O)=O (stereo not given) ? Its Kreact was 5.6e-05
